protocol: Pharmacokinetic study in rat
settings: male, Sprague-Dawley, rat, plasma, iv, 2 mg/kg
measurement-name: Vd (L/kg)

CNC[C@@H](O)COc1ccc(Cl)c(-c2nc(-c3c(C)noc3C)c(C)c(N3CC4(CCN(C(=O)OC)CC4)C3)n2)c1
35.6

* * *

protocol: Pharmacokinetic study in mouse
settings: male, CD-1, mouse, plasma, iv, 2 mg/kg
measurement-name: Vd

CNC[C@@H](O)COc1ccc(Cl)c(-c2nc(-c3c(C)noc3C)c(C)c(N3CC4(CCN(C(=O)OC)CC4)C3)n2)c1
6.53 L/kg

* * *

protocol: Pharmacokinetic study in mouse
settings: male, CD-1, mouse, plasma, po, 10 mg/kg
measurement-name: AUC(0-t) (ng·h/mL)

CNC[C@@H](O)COc1ccc(Cl)c(-c2nc(-c3c(C)noc3C)c(C)c(N3CC4(CCN(C(=O)OC)CC4)C3)n2)c1 [EZM2302]
568

* * *

protocol: Pharmacokinetic study in rat
settings: male, Sprague-Dawley, rat, plasma, iv, 2 mg/kg, CL (plasma clearance), Sprague-Dawley rat, IV Bolus 2 mg/kg
measurement-name: clearance (mL/min/kg)

CNC[C@@H](O)COc1ccc(Cl)c(-c2nc(-c3c(C)noc3C)c(C)c(N3CC4(CCN(C(=O)OC)CC4)C3)n2)c1
91

* * *

experimental-system: rat recombinant kappa-opioid (KOP) receptor (Rattus norvegicus, UniProt P34975)
Sequence (P34975 whole entry): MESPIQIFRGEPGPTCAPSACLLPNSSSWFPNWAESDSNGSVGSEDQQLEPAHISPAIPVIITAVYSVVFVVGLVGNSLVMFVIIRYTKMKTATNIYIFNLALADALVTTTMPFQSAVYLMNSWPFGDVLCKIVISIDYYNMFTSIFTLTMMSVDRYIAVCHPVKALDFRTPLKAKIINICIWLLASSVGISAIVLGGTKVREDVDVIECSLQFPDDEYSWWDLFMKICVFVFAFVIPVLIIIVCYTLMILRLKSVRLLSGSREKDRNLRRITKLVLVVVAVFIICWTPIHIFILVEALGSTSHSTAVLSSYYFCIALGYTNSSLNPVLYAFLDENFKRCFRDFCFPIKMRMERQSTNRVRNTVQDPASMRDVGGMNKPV
protocol: kappa-opioid (KOP) receptor binding assay
measurement-name: IC50

CNC[C@@H](O)COc1ccc(Cl)c(-c2nc(-c3c(C)noc3C)c(C)c(N3CC4(CCN(C(=O)OC)CC4)C3)n2)c1
3.3 µM

* * *

Tested on: HuNS1
protocol: Six-day cell proliferation assay (CellTiter-Glo)
Type: cell-based
settings: 144 h; HuNS1 (Transformed B-lymphoblastoid), 6 days; read-out: Average day 6 gIC50
measurement-name: IC50

CNC[C@@H](O)COc1ccc(Cl)c(-c2nc(-c3c(C)noc3C)c(C)c(N3CC4(CCN(C(=O)OC)CC4)C3)n2)c1
> 19 µM

* * *

protocol: Pharmacokinetic study in rat
settings: male, Sprague-Dawley, rat, plasma, iv, 2 mg/kg
measurement-name: AUC(0-t) (ng·h/mL)

CNC[C@@H](O)COc1ccc(Cl)c(-c2nc(-c3c(C)noc3C)c(C)c(N3CC4(CCN(C(=O)OC)CC4)C3)n2)c1
352

* * *

Test system: NC-37
protocol: Six-day cell proliferation assay (CellTiter-Glo)
Assay type: cell-based
settings: Homo sapiens, 144 h; NC-37 (Burkitt lymphoma), 6 days; read-out: Average day 6 gIC50
pIC50: −log10 of the molar value.
measurement-name: pIC50

CNC[C@@H](O)COc1ccc(Cl)c(-c2nc(-c3c(C)noc3C)c(C)c(N3CC4(CCN(C(=O)OC)CC4)C3)n2)c1
< 5.13

* * *

Tested on: LNCAP
protocol: Long term proliferation assay (15 days)
Format: cell-based
settings: Homo sapiens, 360 h, read-out: EZM2302 IC50 (absolute, long term proliferation), PROSTATE, day 15
pIC50: −log10 of the molar value.
measurement-name: pIC50

CNC[C@@H](O)COc1ccc(Cl)c(-c2nc(-c3c(C)noc3C)c(C)c(N3CC4(CCN(C(=O)OC)CC4)C3)n2)c1
4.91

* * *

Test system: PABP1 and SmB methylation in U266B1 cells
protocol: Western blot of cellular methyl marks, U266B1
settings: 96 h, read-out: IC50, SmBme0
measurement-name: IC50 (nM)

CNC[C@@H](O)COc1ccc(Cl)c(-c2nc(-c3c(C)noc3C)c(C)c(N3CC4(CCN(C(=O)OC)CC4)C3)n2)c1 [EZM2302]
20

* * *

protocol: Pharmacokinetic study in mouse
settings: male, CD-1, mouse, plasma, po, 10 mg/kg
measurement-name: half-life (h)

CNC[C@@H](O)COc1ccc(Cl)c(-c2nc(-c3c(C)noc3C)c(C)c(N3CC4(CCN(C(=O)OC)CC4)C3)n2)c1
4.55

* * *

Test system: MOLM-16
protocol: Six-day cell proliferation assay (CellTiter-Glo)
Type: cell-based
settings: MOLM16, 144 h; MOLM-16 (AML), 6 days; read-out: Average day 6 gIC50
pIC50: −log10 of the molar value.
measurement-name: pIC50

CNC[C@@H](O)COc1ccc(Cl)c(-c2nc(-c3c(C)noc3C)c(C)c(N3CC4(CCN(C(=O)OC)CC4)C3)n2)c1
5.18

* * *

protocol: Pharmacokinetic study in rat
settings: Sprague-Dawley, rat, plasma, po, 10 mg/kg
measurement-name: Cmax (ng/mL)

CNC[C@@H](O)COc1ccc(Cl)c(-c2nc(-c3c(C)noc3C)c(C)c(N3CC4(CCN(C(=O)OC)CC4)C3)n2)c1 [EZM2302]
113

* * *

protocol: Pharmacokinetic study in rat
settings: male, Sprague-Dawley, rat, plasma, iv, 2 mg/kg
measurement-name: AUC(0-inf) (ng·h/mL)

CNC[C@@H](O)COc1ccc(Cl)c(-c2nc(-c3c(C)noc3C)c(C)c(N3CC4(CCN(C(=O)OC)CC4)C3)n2)c1
372

* * *

Tested on: KMS-12BM
protocol: Six-day cell proliferation assay (CellTiter-Glo)
Type: cell-based
settings: Homo sapiens, 144 h; KMS-12BM (MM, Bone marrow), 6 days; read-out: Average day 6 gIC50
measurement-name: IC50

CNC[C@@H](O)COc1ccc(Cl)c(-c2nc(-c3c(C)noc3C)c(C)c(N3CC4(CCN(C(=O)OC)CC4)C3)n2)c1
> 15.5 µM

* * *

Test system: GDM-1
protocol: Six-day cell proliferation assay (CellTiter-Glo)
Format: cell-based
settings: Homo sapiens, 144 h; GDM-1 (AML), 6 days; read-out: Average day 6 gIC50
Experimental: Six-day cell proliferation assay Optimal cell seeding density was determined empirically for each cell lines by examining the gro wth of a wide ran ge o f seedin g densities in a 3 84-well formatto identify conditio ns that permitted maximal and continued proliferation for 6 days. […] DMSO. […] Cells were th en l ysed with CellTiter-Glo (CTG) (Pr omega) and chemiluminescent sign al was detected with an appropriat e microplate reader. […]
measurement-name: IC50

CNC[C@@H](O)COc1ccc(Cl)c(-c2nc(-c3c(C)noc3C)c(C)c(N3CC4(CCN(C(=O)OC)CC4)C3)n2)c1 [EZM2302]
20.7 µM

* * *

Tested on: BT20
protocol: Long term proliferation assay (15 days)
Format: cell-based
settings: Homo sapiens, BT-20, 360 h, read-out: EZM2302 IC50 (absolute, long term proliferation); BT20, BREAST, day 15
pIC50: −log10 of the molar value.
measurement-name: pIC50

CNC[C@@H](O)COc1ccc(Cl)c(-c2nc(-c3c(C)noc3C)c(C)c(N3CC4(CCN(C(=O)OC)CC4)C3)n2)c1
< 4.70

* * *

System: REC-1
protocol: Six-day cell proliferation assay (CellTiter-Glo)
Type: cell-based
settings: Homo sapiens, Rec1, 144 h; REC-1 (B-NHL), 6 days; read-out: Average day 6 gIC50
pIC50: −log10 of the molar value.
measurement-name: pIC50

CNC[C@@H](O)COc1ccc(Cl)c(-c2nc(-c3c(C)noc3C)c(C)c(N3CC4(CCN(C(=O)OC)CC4)C3)n2)c1
< 5.13

* * *

protocol: Pharmacokinetic study in mouse
settings: male, CD-1, mouse, plasma, po, 10 mg/kg
measurement-name: bioavailability (%)

CNC[C@@H](O)COc1ccc(Cl)c(-c2nc(-c3c(C)noc3C)c(C)c(N3CC4(CCN(C(=O)OC)CC4)C3)n2)c1
15

* * *

protocol: Pharmacokinetic study in mouse
settings: male, CD-1, mouse, plasma, po, 10 mg/kg
measurement-name: AUC(0-inf) (ng·h/mL)

CNC[C@@H](O)COc1ccc(Cl)c(-c2nc(-c3c(C)noc3C)c(C)c(N3CC4(CCN(C(=O)OC)CC4)C3)n2)c1
577

* * *

System: JJN3
protocol: Six-day cell proliferation assay (CellTiter-Glo)
Assay type: cell-based
settings: Homo sapiens, JJN-3, 144 h; JJN3 (Plasma cell leukemia), 6 days; read-out: Average day 6 gIC50
measurement-name: IC50

CNC[C@@H](O)COc1ccc(Cl)c(-c2nc(-c3c(C)noc3C)c(C)c(N3CC4(CCN(C(=O)OC)CC4)C3)n2)c1
> 13 µM

* * *

Tested on: JM1
protocol: Six-day cell proliferation assay (CellTiter-Glo)
Format: cell-based
settings: Homo sapiens, 144 h; JM1 (B-cell lymphoma), 6 days; read-out: Average day 6 gIC50
pIC50: −log10 of the molar value.
measurement-name: pIC50

CNC[C@@H](O)COc1ccc(Cl)c(-c2nc(-c3c(C)noc3C)c(C)c(N3CC4(CCN(C(=O)OC)CC4)C3)n2)c1
< 5.13

* * *

Tested on: PABP1 and SmB methylation in NCI-H929 cells
protocol: Western blot of cellular methyl marks, NCI-H929
settings: Homo sapiens, NCI-H929, 96 h, read-out: IC50, PABP1me2a
pIC50: −log10 of the molar value.
measurement-name: pIC50

CNC[C@@H](O)COc1ccc(Cl)c(-c2nc(-c3c(C)noc3C)c(C)c(N3CC4(CCN(C(=O)OC)CC4)C3)n2)c1 [EZM2302]
8.05
